tested-target: human Smo (amino acids 181-787) (Homo sapiens, UniProt Q99835)
Construct: expressed in transfected cells; membrane preparation
Sequence (Q99835 181-787): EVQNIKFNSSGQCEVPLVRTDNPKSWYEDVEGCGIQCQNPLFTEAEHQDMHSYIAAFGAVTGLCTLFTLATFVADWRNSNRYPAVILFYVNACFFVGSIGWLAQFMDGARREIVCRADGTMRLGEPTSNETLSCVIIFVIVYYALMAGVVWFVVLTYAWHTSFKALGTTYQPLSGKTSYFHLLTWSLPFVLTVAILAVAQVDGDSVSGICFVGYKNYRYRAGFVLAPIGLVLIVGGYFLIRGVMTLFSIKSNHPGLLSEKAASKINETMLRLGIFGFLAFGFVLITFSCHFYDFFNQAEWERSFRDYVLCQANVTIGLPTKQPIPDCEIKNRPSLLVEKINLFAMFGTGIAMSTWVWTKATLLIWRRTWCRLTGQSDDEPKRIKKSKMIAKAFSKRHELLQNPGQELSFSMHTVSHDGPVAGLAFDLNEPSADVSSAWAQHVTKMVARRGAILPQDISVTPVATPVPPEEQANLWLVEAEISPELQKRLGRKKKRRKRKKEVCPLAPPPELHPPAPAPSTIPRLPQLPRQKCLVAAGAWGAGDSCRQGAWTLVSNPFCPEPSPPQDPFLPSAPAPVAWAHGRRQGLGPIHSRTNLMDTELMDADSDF
procedure-text: Smo radioligand competition binding assay (displacement of 3H-PF-03451358 from HEK293 membranes)
experimental-parameters: 0.05 μM test compound; displacement of 3H-PF-03451358; read-out: SMO % inh. @ 0.05 μM
Please enter Yes where inhibition at 0.05 µM is greater than or equal to 90%, and No where it is lower.

See these solved cases before continuing.
compound=COC(=O)N1CCN(c2cc(-c3nc4ccccc4n3C)ccn2)CC1 tested_target="human Smo (amino acids 181-787) (Homo sapiens, UniProt Q99835)" class_label=Yes
compound=Cn1c(-c2ccnc(N3CCC(NS(C)(=O)=O)CC3)n2)nc2ccccc21 tested_target="human Smo (amino acids 181-787) (Homo sapiens, UniProt Q99835)" class_label=Yes
compound="Cc1noc(C2CN(c3cc(-c4nc5ccccc5n4C)c(Cl)cn3)CCO2)n1 (stereo not drawn)" tested_target="human Smo (amino acids 181-787) (Homo sapiens, UniProt Q99835)" class_label=Yes

query: Hello, I need to know if "Cn1c(-c2cc(N3CCN(C(=O)CCS(C)(=O)=O)CC3)ncc2F)nc2ccccc21" has measured inhibition at 0.05 µM not below 90%. Thanks!
result: Yes

query: "COC(=O)N1CCN(c2cc(-c3nc4ccccc4n3C)c(F)cn2)CC1" ?
result: Yes
